- System: Streptococcus pyogenes C203
- EXPERIMENTAL_DETAILS: MIC, standard agar-dilution assay
- Format: cell-based
- CONDITIONS: Streptococcus pyogenes C203; agar dilution; read-out: MIC
# MIC annotations
Note: unit µg/mL is implicit; provide only the numeric part.

Examples with answers:
MOLECULE	MIC, µg/mL
CCC1OC(=O)CC(O)C(C)C(OC2OC(C)C(O)C(N(C)C)C2O)C(CCOc2ccccc2)CC(C)C(=O)C=CC(C)=CC1COC1OC(C)C(OC(=O)C(N)c2ccccc2)C(OC)C1OC (centres unmarked)	2
CCC1OC(=O)CC(O)C(C)C(OC2OC(C)C(OC(C)=O)C(N(C)C)C2OC(C)=O)C(CCOc2ccccc2)CC(C)C(=O)C=CC(C)=CC1COC1OC(C)C(OC(C)=O)C(OC)C1OC (centres unmarked)	1
CCC1OC(=O)CC(O)C(C)C(OC2OC(C)C(O)C(N(C)C)C2O)C(CCOc2ccccc2)CC(C)C(=O)C=CC(C)=CC1COC1OC(C)C(OC(=O)CN2CCN(C)CC2)C(OC)C1OC (centres unmarked)	2

Tell us which MIC value is on record for CCC1OC(=O)CC(O)C(C)C(OC2OC(C)C(O)C(N(C)C)C2O)C(CCOc2ccccc2)CC(C)C(=O)C=CC(C)=CC1COC1OC(C)C(OC(=O)CNCc2ccccc2)C(OC)C1OC (centres unmarked)
2

Tell us which MIC value is on record for CCC1OC(=O)CC(O)C(C)C(OC2OC(C)C(O)C(N(C)C)C2O)C(CCOc2ccccc2)CC(C)C(=O)C=CC(C)=CC1COC1OC(C)C(OC(C)=O)C(OC)C1OC (centres unmarked)
1
